test system: wheat; test: Test A preemergence; assay type: in vivo, Triticum aestivum; settings: Triticum aestivum, pre-emergence, 240 h, 500 g ai/ha, 0 to 100 scale (0 no effect, 100 complete control), 10 days, read-out: Plant response rating, Wheat
resultType: plant injury at 500 g/ha (%)
Provide the reading as a plain figure in %.

Here is how some molecules turned out for plant injury at 500 g/ha.
>  <molecule>
Cc1ccc(-n2cnc(C(C)C)n2)cc1C(=O)N1C[C@H](C)Oc2c(Cl)cccc21 [Compound 73]

>  <plant injury at 500 g/ha, %>
80

$$$$
>  <molecule>
COCc1ncn(-c2cccc(C(=O)N3C[C@H](C)Oc4c(C)cccc43)c2)n1 [Compound 101]

>  <plant injury at 500 g/ha, %>
50

$$$$
>  <molecule>
C#Cc1ncn(-c2cccc(C(=O)N3C[C@H](C)Oc4c(C)cccc43)c2)n1 [Compound 64]

>  <plant injury at 500 g/ha, %>
40

$$$$

Now for the molecule whose plant injury at 500 g/ha we want.
**Q:** Quick check: plant injury at 500 g/ha of Cc1ccc(-n2cnc(C(C)(C)C)n2)cc1C(=O)N1C[C@H](C)Oc2c(Cl)cccc21 [Compound 76] ?
**A:** 90

---

test system: wheat; test: Test A preemergence; assay type: in vivo, Triticum aestivum; settings: Triticum aestivum, pre-emergence, 240 h, 125 g ai/ha, visual injury after 10 days, 0 to 100 scale, 0 is no effect, 100 is complete control, read-out: Plant response rating, Wheat
resultType: plant injury at 125 g/ha
Answer with the figure and its unit, nothing else.

>  <structureSmilesString>
COc1ccc(-n2cnc(C(C)C)n2)cc1C(=O)N1C[C@H](C)Oc2c(Cl)cccc21

>  <plant injury at 125 g/ha>
60%

$$$$

**Q:** Quick check: plant injury at 125 g/ha of C#Cc1ncn(-c2cccc(C(=O)N3C[C@H](C)Oc4c(C)cccc43)c2)n1 ?
**A:** 20%

**Q:** Quick check: plant injury at 125 g/ha of Cc1ccc(-n2cnc(C3CCC3)n2)cc1C(=O)N1C[C@H](C)Oc2c(Cl)cccc21 ?
**A:** 20%

---

# Plant response rating, Ragweed values compiled below
tested on: ragweed; assay: Test C postemergence; format: in vivo, Ambrosia artemisiifolia; settings: 500 g ai/ha, postemergence, 10 days, 0 to 100 scale (0 no effect, 100 complete control)
// return a plain number; no unit text

>  <compound>
Cc1nnc(-c2cccc(C(=O)N3C[C@H](C)Oc4c(Cl)cccc43)c2)o1

>  <tgt>
ragweed

>  <Plant response rating, Ragweed>
0

$$$$
>  <compound>
Cc1cccc2c1OC(C(F)(F)F)CN2C(=O)c1cccc(-n2cnc(C(C)(C)C)n2)c1 (stereo not drawn)

>  <tgt>
ragweed

>  <Plant response rating, Ragweed>
50

$$$$
>  <compound>
CC(C)c1ncn(-c2ccc(S(C)(=O)=O)c(C(=O)N3C[C@H](C)Oc4c(Cl)cccc43)c2)n1

>  <tgt>
ragweed

>  <Plant response rating, Ragweed>
70

$$$$
>  <compound>
Cc1cccc2c1O[C@@H](C)CN2C(=O)c1cccc(-n2cnc(N(C)S(C)(=O)=O)n2)c1

>  <tgt>
ragweed

>  <Plant response rating, Ragweed>
0

$$$$
>  <compound>
CC(C)c1ncn(-c2cc(C(=O)N3CC(C(F)(F)F)Oc4c(Cl)cccc43)ccn2)n1 (single isomer, unassigned)

>  <tgt>
ragweed

>  <Plant response rating, Ragweed>
40

$$$$

Now for the compound whose Plant response rating, Ragweed we want.
**Q:** Value wanted: Plant response rating, Ragweed (ragweed) of entry CSc1ccc(-n2cnc(C(C)C)n2)cc1C(=O)N1C[C@H](C)Oc2c(Cl)cccc21
**A:** 90
